studySystem: Mitogen-activated protein kinase 14 (Homo sapiens, UniProt Q16539)
Sequence (Q16539 whole entry): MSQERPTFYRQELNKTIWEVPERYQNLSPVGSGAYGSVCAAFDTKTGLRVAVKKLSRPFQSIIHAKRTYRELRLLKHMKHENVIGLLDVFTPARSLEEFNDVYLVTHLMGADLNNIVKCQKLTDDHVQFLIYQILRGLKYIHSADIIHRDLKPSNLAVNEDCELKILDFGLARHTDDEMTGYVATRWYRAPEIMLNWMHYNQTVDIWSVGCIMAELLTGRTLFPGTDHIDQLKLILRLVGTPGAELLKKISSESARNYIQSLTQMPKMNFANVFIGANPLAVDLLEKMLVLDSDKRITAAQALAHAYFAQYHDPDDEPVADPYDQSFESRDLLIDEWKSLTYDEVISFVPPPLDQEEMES
experimentDescription: Competitive inhibition of p38alpha MAP kinase (unknown origin) in presence of 100 uM ATP
pIC50: −log10 of the molar value.
measurementKind: pIC50

Data request: // Input: Cc1cc(F)c(NC(=O)c2ccsc2)cc1Nc1ccc2c(c1)OCc1ccc(OC[C@H]3COC(C)(C)O3)cc1C2=O . Output its pIC50 only.
Data returned: 8.74

P = O=C1c2ccc(Nc3ccc(F)cc3F)cc2CCc2ccc(OCCCO)cc21
Q = O=C1c2ccc(OCC[C@@H](O)CO)cc2COc2cc(Nc3ccc(F)cc3F)ccc21
Data request: Kindly identify the item with the lower pIC50 figure among these two: P and Q Reply with the label of the item you choose.
Data returned: Q
(Q: 7.68, P: 7.89)

This collection of values is drawn from ChEMBL document CHEMBL3085714.
